Here's a batch of molecules along with measured IC50 for ACE from the lung of rabbit (Oryctolagus cuniculus, UniProt P12822).
Answer format: numeric, nM implied, no suffix.

{"Molecule": "N[C@H](C(=O)O)C(O)CN[C@@H](CCN1CC[C@H]1C(=O)O)C(=O)O (some centres unmarked) [2″-hydroxynicotianamine]", "Uom": "nM", "IC50": 80}

Next:
// fetch ACE from the lung of rabbit (Oryctolagus cuniculus, UniProt P12822) IC50 for N[C@@H](CCN[C@@H](CCN1CC[C@H]1C(=O)O)C(=O)O)C(=O)O [nicotianamine, Nicotianamine] 85

Ref: patent US20070043018A1
